All figures here come from PubChem BioAssay (NCI).

We begin with a simple list: items and their reported growth.
Test system: M14 melanoma
assay-details: NCI-60 one-dose screen, 48 h (100 = growth as untreated, 0 = no growth, -100 = all killed)
test-parameters: 10 µM unless noted
About 83,000 compounds went through this panel and 20% of them were active in at least one assay; those are over-represented in the sample as a whole.
Write the answer as a number in %, unit excluded.

{"columns": ["chemical-smiles", "growth / %"],
 "data": [
  ["Cc1cc(=O)[nH]c2c(C#N)cnn12", 105],
  ["CN(C)C1CCN(Cc2ccc(NC(=O)c3cncc(C#Cc4cnc(N)c5ncccc45)c3)cc2C(F)(F)F)CC1", -73.6],
  ["CCN(CC)C(=S)SC(SC(=S)N(CC)CC)C(=O)c1nnn(-c2ccc([N+](=O)[O-])cc2)c1C", 96.9]
]}

Next up:
Prompt: What value of measured growth is listed for CC(C)=CCC[C@](C)(O)[C@H]1CC[C@]2(C)[C@@H]1CC[C@@H]1[C@@]3(C)Cc4nccnc4C(C)(C)[C@@H]3CC[C@]12C ?
Response: 71.4
